Test: Stability in human plasma assessed as compound remaining relative to control; also: time not given here
Format: ADME, cell-free
Exercise: state measured Stabilty for each of the molecules provided.
Kindly format the answer as number then unit.

- smi: "Cc1ccc(N(C)C(=O)Cn2ncc(Cl)c(Cl)c2=O)cc1S(=O)(=O)NCCc1ccccn1"
  observation_type: "Stabilty"
  result: "89%"

Answer for every listed entry: what is its Stabilty? The entries follow.
1. Cc1ccc(NC(=O)Cn2ncc(Cl)c(Cl)c2=O)nc1S(=O)(=O)NCCc1ccccn1
2. Cc1ccc(NC(=O)[C@@H](C)n2ncc(Cl)c(Cl)c2=O)cc1S(=O)(=O)NCCc1ccccn1
3. Cc1ccc(NC(=O)Cn2ncc(Cl)c(Cl)c2=O)cc1S(=O)(=O)N1CCCN(C)CC1
4. Cc1ccc(NC(=O)Cn2ncc(Cl)c(Cl)c2=O)cc1S(=O)(=O)NCCc1ccncc1

result:
1. 96%
2. 95%
3. 84%
4. 92%

// provenance: ChEMBL document CHEMBL4825730
